# PROTOCOL_DESCRIPTION: Oral pharmacokinetic study, HPLC quantification in plasma
# Type: in vivo, albino Wistar rats
# ASSAY_CONTEXT: albino Wistar, rat plasma, DL equivalent 100 mg/kg
# Description: DL, DLF, and DLMF were administered orally to albino Wistar rats at a dose of DL equivalent to 100 mg/kg (Approval No: IU/IAEC/20/01), and after the first treatment, the blood samples were collected through retro-orbital plexus of the animals at 0.083, 0.25, 0.5, 1, 2, 4, 8, 12, 16, 24, and 48 h. […] The serum samples were kept at -20 °C until quantification by HPLC analysis. A precise and accurate bioanalytical approach was devised for drug quantification in plasma samples. […]
MEASUREMENT_TYPE: half-life (h)

                             smiles  observed_value
0  COc1cc2oc(=O)cc(-c3ccccc3)c2cc1O            9.63

* * *

# PROTOCOL_DESCRIPTION: Oral pharmacokinetic study, HPLC quantification in plasma
# Type: in vivo, albino Wistar rats
# ASSAY_CONTEXT: albino Wistar, rat plasma, DL equivalent 100 mg/kg
MEASUREMENT_TYPE: Tmax (h)

>>> df
                                molecule  measurement_type  observed_value
0  COc1cc2oc(=O)cc(-c3ccccc3)c2cc1O [DL]              Tmax               4

* * *

# PROTOCOL_DESCRIPTION: Oral pharmacokinetic study, HPLC quantification in plasma
# Type: in vivo, albino Wistar rats
# ASSAY_CONTEXT: albino Wistar, rat plasma, DL equivalent 100 mg/kg
# Method: DL, DLF, and DLMF were administered orally to albino Wistar rats at a dose of DL equivalent to 100 mg/kg (Approval No: IU/IAEC/20/01), and after the first treatment, the blood samples were collected through retro-orbital plexus of the animals at 0.083, 0.25, 0.5, 1, 2, 4, 8, 12, 16, 24, and 48 h. […] The serum samples were kept at -20 °C until quantification by HPLC analysis. A precise and accurate bioanalytical approach was devised for drug quantification in plasma samples. […]
MEASUREMENT_TYPE: MRT (h)

                             smiles  measurement_type  observed_value
0  COc1cc2oc(=O)cc(-c3ccccc3)c2cc1O               MRT            11.5
